Reference source for all entries: patent US7534894B2

Molecular target: recombinant human plasminogen activator inhibitor-1 (PAI-1) (Homo sapiens, UniProt P05121)
Construct: purchased Molecular Innovations, Royal Oak, Mich
Sequence (P05121 24-402): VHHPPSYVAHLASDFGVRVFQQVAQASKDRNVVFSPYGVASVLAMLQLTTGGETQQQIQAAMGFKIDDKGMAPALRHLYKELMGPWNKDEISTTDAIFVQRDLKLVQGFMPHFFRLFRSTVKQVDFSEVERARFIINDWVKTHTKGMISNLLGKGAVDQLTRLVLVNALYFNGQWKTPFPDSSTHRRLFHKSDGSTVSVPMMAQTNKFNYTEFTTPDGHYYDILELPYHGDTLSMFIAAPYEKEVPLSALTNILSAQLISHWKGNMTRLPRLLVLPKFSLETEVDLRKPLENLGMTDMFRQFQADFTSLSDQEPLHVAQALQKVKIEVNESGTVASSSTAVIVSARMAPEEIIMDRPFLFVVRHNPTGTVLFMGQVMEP
Assay: Primary Screen for the PAI-1 Inhibition (residual tPA activity, chromogenic substrate Spectrozyme-tPA)
Assay type: biochemical
Conditions: 25 μM test compound; 140 nM PAI-1, 70 nM tPA, pH 6.6
Please note: yes applies when inhibition at 25 µM is 20% or greater, and no applies otherwise.

Query: Please check the record Cc1nn(Cc2ccc(C(=O)Nc3ccc(-c4cccc(OC(Cc5ccccc5)C(=O)O)c4)cc3)o2)c(C)c1Br (stereo not shown) and state if its inhibition at 25 µM is at or above 20%.
Reply: no

Query: Reported inhibition at 25 µM reaches at least 20% for O=C(O)C(Cc1ccccc1)Oc1cccc(-c2ccc(NC(=O)C3(c4cccc(F)c4)CCCC3)cc2)c1 (stereo not shown) ?
Reply: yes

Query: Decide: inhibition at 25 µM of O=C(Nc1ccc(-c2ccc(OC(Cc3ccccc3)C(=O)O)cc2)cc1)c1ccc(Oc2ccccc2)cc1 (stereo not shown) >= 20%?
Reply: yes

Query: Does the compound O=C(Nc1ccc(-c2cccc(OC(Cc3ccccc3)C(=O)O)c2)cc1)c1ccc(-c2ccc(Cl)cc2)s1 (stereo not shown) have recorded inhibition at 25 µM that is 20% or more?
Reply: no

Query: Determine whether this compound has inhibition at 25 µM no lower than 20%: O=C(O)C(Cc1ccccc1)Oc1cccc(-c2ccc(NC(=O)C3(c4ccccc4)CCCC3)cc2)c1 (stereo not shown)
Reply: yes

Query: hey, is inhibition at 25 µM for this one >= 20%? O=C(Nc1ccc(-c2ccc(OC(Cc3ccccc3)C(=O)O)cc2)cc1)c1cc(-c2ccccc2Cl)oc1C(F)(F)F (stereo not shown)
Reply: no

Query: Could you tell me if the measured inhibition at 25 µM of O=C(Nc1ccc(-c2cccc(OC(Cc3ccccc3)C(=O)O)c2)cc1)c1cc2cc(OCc3ccccc3)ccc2[nH]1 (stereo not shown) reaches 20% or more?
Reply: yes
